cell viability reference
System: HL-60
Assay procedure: cell viability (% survival relative to DMSO control); higher = less cytotoxic
Condition details: 0.01 µM; 72 h; co-treatment: GSK2194069 100 nM
Your answer should be a plain number; it is taken to be in %.

Which cell viability value belongs to O=C(O)C(=O)CBr ?
96.2

Which cell viability value belongs to O=C(C1CC1)N1CC[C@@H](C=C2NNC(=O)N2c2ccc(-c3ccc4occc4c3)cc2)C1 ?
104

Which cell viability value belongs to Cc1cn([C@H]2C[C@H](O)[C@@H](COP(=O)(O)OP(=O)(O)O)O2)c(=O)[nH]c1=O [Thymidine diphosphate] ?
75.9

Which cell viability value belongs to O=C(O)Cn1nnc(-c2cc(N3CCC(Oc4cc(F)ccc4Br)CC3)no2)n1 ?
100

Which cell viability value belongs to CCC(=O)N1CCN(c2ccc(-n3c(=O)ccc4cnc5ccc(-c6cnc7ccccc7c6)cc5c43)cc2C(F)(F)F)CC1 ?
106

Which cell viability value belongs to COc1ccc(S(=O)(=O)N2CCN(S(=O)(=O)c3ccc4c(c3)OCCO4)CC2)cc1 ?
74.9

Which cell viability value belongs to O=c1oc2c(O)c(O)cc3c(=O)oc4c(O)c(O)cc1c4c23 ?
97.6

Which cell viability value belongs to O=C(O)C[C@@]1(O)C[C@@H](CCCCCCc2ccc(Cl)cc2Cl)OC1=O ?
108

Which cell viability value belongs to COc1ccc(-c2ccccc2)cc1NS(=O)(=O)c1cc(Cl)cc(Cl)c1O ?
99

Which cell viability value belongs to CCN(CC)CCCC(C)Nc1ccnc2cc(Cl)ccc12 (centres undefined) ?
77.2

Which cell viability value belongs to Nc1nc(Cl)nc2c1ncn2[C@H]1C[C@H](O)[C@@H](CO)O1 ?
101

Which cell viability value belongs to NC(=O)c1cccc(-c2cccc(OC(=O)NC3CCCCC3)c2)c1 ?
114

Which cell viability value belongs to C=C(C=NNC(=N)N)NNC(=N)N ?
112

Which cell viability value belongs to COc1ccc2c(C(=S)N(C)CC(=O)O)cccc2c1C(F)(F)F ?
105

Which cell viability value belongs to CC(C)(O)CNc1nc(Nc2ccnc(C(F)(F)F)c2)nc(-c2cccc(C(F)(F)F)n2)n1 ?
95.9

Which cell viability value belongs to O=C(O)C(=S)Cc1c[nH]c2ccc(F)cc12 ?
101

Which cell viability value belongs to C[C@](N)(Cc1ccc(O)cc1)C(=O)O ?
104

Which cell viability value belongs to COc1ccc(C(=O)Nc2c(Cl)cncc2Cl)cc1OC1CCCC1 ?
100

Which cell viability value belongs to NCCCC(N)(C(=O)O)C(F)F (centres undefined) ?
98.8
